- test_protocol: Conductivity testing (calculated CMC)
- Format: physicochemical
- protocol_conditions: average of outer, inner, all points
Overview of reported Calculated CMC, Average across a group of molecules:

# molecule, Calculated CMC, Average [M]
measured = [
    ("N=C(NCCCCCCNC(=N)NC(=N)Nc1ccc(Cl)cc1)NC(=N)Nc1ccc(Cl)cc1.O=C(O)C(O)C(O)C(O)C(O)C(O)CO.O=C(O)C(O)C(O)C(O)C(O)C(O)CO [RM13A, Chlorhexidine di-α-glucoheptonate]", 0.0123),
    ("N=C(NCCCCCCNC(=N)NC(=N)Nc1ccc(Cl)cc1)NC(=N)Nc1ccc(Cl)cc1.O=C(O)[C@H](O)[C@@H](O)[C@H](O)[C@H](O)CO.O=C(O)[C@H](O)[C@@H](O)[C@H](O)[C@H](O)CO [RM12C, Chlorhexidine digluconate]", 0.0131),
    ("N=C(NCCCCCCNC(=N)NC(=N)Nc1ccc(Cl)cc1)NC(=N)Nc1ccc(Cl)cc1.O=C(O)[C@H](O)[C@@H](O)[C@H](O)[C@H](O)CO.O=C(O)[C@H](O)[C@@H](O)[C@H](O)[C@H](O)CO [RM12A, Chlorhexidine digluconate]", 0.0126),
    ("N=C(NCCCCCCNC(=N)NC(=N)Nc1ccc(Cl)cc1)NC(=N)Nc1ccc(Cl)cc1.O=C(O)C(O)C(O)C(O)C(O)C(O)CO.O=C(O)C(O)C(O)C(O)C(O)C(O)CO [RM13C, Chlorhexidine di-α-glucoheptonate]", 0.0126),
]

====

- test_protocol: Conductivity testing (calculated CMC)
- Type: physicochemical
- protocol_conditions: average of outer, inner, all points
measured_parameter: Calculated CMC, Average (M)

# molecule, value_observed
rows = [
    ("N=C(NCCCCCCNC(=N)NC(=N)Nc1ccc(Cl)cc1)NC(=N)Nc1ccc(Cl)cc1.O=C(O)[C@H](O)[C@@H](O)[C@H](O)[C@H](O)CO.O=C(O)[C@H](O)[C@@H](O)[C@H](O)[C@H](O)CO [RM12B, Chlorhexidine digluconate]", 0.0127),
    ("N=C(NCCCCCCNC(=N)NC(=N)Nc1ccc(Cl)cc1)NC(=N)Nc1ccc(Cl)cc1.O=C(O)C(O)C(O)C(O)C(O)C(O)CO.O=C(O)C(O)C(O)C(O)C(O)C(O)CO [RM15A, Chlorhexidine di-β81-glucoheptonate]", 0.0133),
    ("N=C(NCCCCCCNC(=N)NC(=N)Nc1ccc(Cl)cc1)NC(=N)Nc1ccc(Cl)cc1.O=C(O)C(O)C(O)C(O)C(O)C(O)CO.O=C(O)C(O)C(O)C(O)C(O)C(O)CO [RM13B, Chlorhexidine di-α-glucoheptonate]", 0.0126),
    ("N=C(NCCCCCCNC(=N)NC(=N)Nc1ccc(Cl)cc1)NC(=N)Nc1ccc(Cl)cc1.O=C(O)C(O)C(O)C(O)C(O)C(O)CO.O=C(O)C(O)C(O)C(O)C(O)C(O)CO [RM14C, Chlorhexidine di-β73-glucoheptonate]", 0.0133),
    ("N=C(NCCCCCCNC(=N)NC(=N)Nc1ccc(Cl)cc1)NC(=N)Nc1ccc(Cl)cc1.O=C(O)C(O)C(O)C(O)C(O)C(O)CO.O=C(O)C(O)C(O)C(O)C(O)C(O)CO [RM14A, Chlorhexidine di-β73-glucoheptonate]", 0.0126),
    ("N=C(NCCCCCCNC(=N)NC(=N)Nc1ccc(Cl)cc1)NC(=N)Nc1ccc(Cl)cc1.O=C(O)C(O)C(O)C(O)C(O)C(O)CO.O=C(O)C(O)C(O)C(O)C(O)C(O)CO [RM14B, Chlorhexidine di-β73-glucoheptonate]", 0.0132),
]

====

Overview of reported Log Reduction across a group of molecules:
- Test system: Staphylococcus aureus
- test_protocol: ASTM E2315-16 Time-Kill Procedure
- Type: cell-based
- protocol_conditions: 30 seconds; 1.00% (wt. %)
measured_parameter: Log Reduction

# molecule, value_observed
rows = [
    ("N=C(NCCCCCCNC(=N)NC(=N)Nc1ccc(Cl)cc1)NC(=N)Nc1ccc(Cl)cc1.O=C(O)C(O)C(O)C(O)C(O)C(O)CO.O=C(O)C(O)C(O)C(O)C(O)C(O)CO [Sample G, chlorhexidine di-α-glucoheptonate]", 3.06),
    ("CC(=O)O.CC(=O)O.NC(=N\\CCCCCC/N=C(N)/N=C(\\N)Nc1ccc(Cl)cc1)/N=C(\\N)Nc1ccc(Cl)cc1 [Sample P, chlorhexidine diacetate]", 5.07),
    ("N=C(NCCCCCCNC(=N)NC(=N)Nc1ccc(Cl)cc1)NC(=N)Nc1ccc(Cl)cc1.O=C(O)C(O)C(O)C(O)C(O)C(O)CO.O=C(O)C(O)C(O)C(O)C(O)C(O)CO [Sample H, chlorhexidine di-β73-glucoheptonate]", 4.33),
    ("N=C(NCCCCCCNC(=N)NC(=N)Nc1ccc(Cl)cc1)NC(=N)Nc1ccc(Cl)cc1.O=C(O)[C@H](O)[C@@H](O)[C@H](O)[C@H](O)CO.O=C(O)[C@H](O)[C@@H](O)[C@H](O)[C@H](O)CO [Sample I, chlorhexidine digluconate]", 3.37),
]

====

- test_protocol: Conductivity testing (calculated CMC)
- Assay type: physicochemical
- protocol_conditions: all data points
Overview of reported Calculated CMC, All Points across a group of compounds:
measured_parameter: Calculated CMC, All Points (M)

# compound, value_observed
data = [
    ("N=C(NCCCCCCNC(=N)NC(=N)Nc1ccc(Cl)cc1)NC(=N)Nc1ccc(Cl)cc1.O=C(O)[C@H](O)[C@@H](O)[C@H](O)[C@H](O)CO.O=C(O)[C@H](O)[C@@H](O)[C@H](O)[C@H](O)CO [RM12A, Chlorhexidine digluconate]", 0.0133),
    ("N=C(NCCCCCCNC(=N)NC(=N)Nc1ccc(Cl)cc1)NC(=N)Nc1ccc(Cl)cc1.O=C(O)C(O)C(O)C(O)C(O)C(O)CO.O=C(O)C(O)C(O)C(O)C(O)C(O)CO [RM13B, Chlorhexidine di-α-glucoheptonate]", 0.0132),
    ("N=C(NCCCCCCNC(=N)NC(=N)Nc1ccc(Cl)cc1)NC(=N)Nc1ccc(Cl)cc1.O=C(O)C(O)C(O)C(O)C(O)C(O)CO.O=C(O)C(O)C(O)C(O)C(O)C(O)CO [RM13C, Chlorhexidine di-α-glucoheptonate]", 0.0130),
    ("N=C(NCCCCCCNC(=N)NC(=N)Nc1ccc(Cl)cc1)NC(=N)Nc1ccc(Cl)cc1.O=C(O)C(O)C(O)C(O)C(O)C(O)CO.O=C(O)C(O)C(O)C(O)C(O)C(O)CO [RM15A, Chlorhexidine di-β81-glucoheptonate]", 0.0133),
]

====

- test_protocol: Conductivity testing (calculated CMC)
- Type: physicochemical
- protocol_conditions: outer data points
- Method: Conductivities were measured using a VWR 23609-216 Pure H2O Tester conductivity meter. The meter probe was submerged into the test solution and swirled gently. Once the meter settled, the value was recorded. The conductivity of the solutions of Example 7 were tested at dilutions ranging from 0.1 M to 0.001 M. The data was plotted on a logarithmic scale and analyzed in the style of Heard and Ashworth. […]
Overview of reported Calculated CMC, Outer Points across a group of compounds:

# compound, units_text, Calculated CMC, Outer Points
measured = [
    ("N=C(NCCCCCCNC(=N)NC(=N)Nc1ccc(Cl)cc1)NC(=N)Nc1ccc(Cl)cc1.O=C(O)C(O)C(O)C(O)C(O)C(O)CO.O=C(O)C(O)C(O)C(O)C(O)C(O)CO [RM13C, Chlorhexidine di-α-glucoheptonate]", "M", 0.0113),
    ("N=C(NCCCCCCNC(=N)NC(=N)Nc1ccc(Cl)cc1)NC(=N)Nc1ccc(Cl)cc1.O=C(O)[C@H](O)[C@@H](O)[C@H](O)[C@H](O)CO.O=C(O)[C@H](O)[C@@H](O)[C@H](O)[C@H](O)CO [RM12C, Chlorhexidine digluconate]", "M", 0.0116),
    ("N=C(NCCCCCCNC(=N)NC(=N)Nc1ccc(Cl)cc1)NC(=N)Nc1ccc(Cl)cc1.O=C(O)C(O)C(O)C(O)C(O)C(O)CO.O=C(O)C(O)C(O)C(O)C(O)C(O)CO [RM13A, Chlorhexidine di-α-glucoheptonate]", "M", 0.0115),
    ("N=C(NCCCCCCNC(=N)NC(=N)Nc1ccc(Cl)cc1)NC(=N)Nc1ccc(Cl)cc1.O=C(O)C(O)C(O)C(O)C(O)C(O)CO.O=C(O)C(O)C(O)C(O)C(O)C(O)CO [RM14B, Chlorhexidine di-β73-glucoheptonate]", "M", 0.0113),
]

====

- Test system: Staphylococcus epidermidis
- test_protocol: ASTM E2315-16 Time-Kill Procedure
- Assay type: cell-based
- protocol_conditions: 30 seconds; 0.20% (wt. %)
- Procedure: Select compounds were tested for antimicrobial activity using ASTM method […]-16 (Standard Guide for Assessment of Antimicrobial Activity using a Time-Kill Procedure). […] Two glucoheptonic acids were evaluated for antimicrobial activity against the same six microbes as Example 13. […] Sample F was prepared by mixing and extensively heating a stoichiometric quantity (1:1) of sodium α-glucoheptonate with benzalkonium chloride, typified by the C12-14 alkyl chain. […]
Overview of reported Log Reduction across a group of compounds:

# compound, Log Reduction
data = [
    ("N=C(NCCCCCCNC(=N)NC(=N)Nc1ccc(Cl)cc1)NC(=N)Nc1ccc(Cl)cc1.O=C(O)C(O)C(O)C(O)C(O)C(O)CO.O=C(O)C(O)C(O)C(O)C(O)C(O)CO [Sample G, chlorhexidine di-α-glucoheptonate]", 0.95),
    ("N=C(NCCCCCCNC(=N)NC(=N)Nc1ccc(Cl)cc1)NC(=N)Nc1ccc(Cl)cc1.O=C(O)[C@H](O)[C@@H](O)[C@H](O)[C@H](O)CO.O=C(O)[C@H](O)[C@@H](O)[C@H](O)[C@H](O)CO [Sample I, chlorhexidine digluconate]", 2.00),
    ("N=C(NCCCCCCNC(=N)NC(=N)Nc1ccc(Cl)cc1)NC(=N)Nc1ccc(Cl)cc1.O=C(O)C(O)C(O)C(O)C(O)C(O)CO.O=C(O)C(O)C(O)C(O)C(O)C(O)CO [Sample H, chlorhexidine di-β73-glucoheptonate]", 1.47),
    ("CC(=O)O.CC(=O)O.NC(=N\\CCCCCC/N=C(N)/N=C(\\N)Nc1ccc(Cl)cc1)/N=C(\\N)Nc1ccc(Cl)cc1 [Sample P, chlorhexidine diacetate]", 1.57),
]
